Please provide measured pIC50 for the entries that follow.
Target: ShHTL7 (Striga hermonthica)
Sequence (A0A0M3PNA2 1-271): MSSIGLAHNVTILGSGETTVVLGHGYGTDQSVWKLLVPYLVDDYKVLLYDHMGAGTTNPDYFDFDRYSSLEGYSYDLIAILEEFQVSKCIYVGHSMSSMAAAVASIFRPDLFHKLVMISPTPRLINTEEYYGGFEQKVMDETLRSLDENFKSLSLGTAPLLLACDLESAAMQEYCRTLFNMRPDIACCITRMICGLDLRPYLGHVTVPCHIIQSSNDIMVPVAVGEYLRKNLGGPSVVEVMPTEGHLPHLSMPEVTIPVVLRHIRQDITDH
Experiment: in vitro yoshimulactone green (YLG) fluorescence competition assay
Type: biochemical
Settings: read-out: IC50
Formally, pIC50 is defined as -log10 of the concentration c, with c in mol/L.

Enter reported pIC50 observed with ShHTL7 (Striga hermonthica) for CC1=CC(O/C=C2/C(=O)OC3c4cc(Br)ccc4CC23)OC1=O (centres unmarked) [7BrGR24, 7-bromo-GR24]
6.28

Enter reported pIC50 observed with ShHTL7 (Striga hermonthica) for CC1=CC(O/C=C2/C(=O)OC3c4cc(F)ccc4CC23)OC1=O (centres unmarked) [7FGR24, 7-fluoro-GR24]
6.72

---

Molecular target: ShHTL7 (Striga hermonthica)
Experiment: in vitro yoshimulactone green (YLG) fluorescence competition assay
Format: biochemical
measured_property: IC50 (nM)
Express the result in nM but write the number alone.

Fill in: IC50 of CC1=CC(O/C=C2/C(=O)OC3c4ccccc4CC23)OC1=O (racemic) is ___
319

Fill in: IC50 of CC1=C[C@H](O/C=C2/C(=O)O[C@@H]3c4ccccc4C[C@H]23)OC1=O [(+)-GR24] is ___
248
